Read-out: CYP2E1 (gene 1571)
methodSummary: LTEA_HepaRG_CYP2E1: Life Technologies and Expression Analysis (LTEA) Assay for CYP2E1 using HepaRG (AID 2283485)
setupConditions: mRNA level, 48 h; actives raise or lower the signal
Active and inactive are the calls of the source. The calls were made as follows: active = hit-call score of the fitted dose curve at least 0.9, where 1 is the maximum; inactive = score below 0.9.
Mark one answer only. Choices: active, inactive

These recorded examples may help you get a feel for the data.
In [3]: df
Out[3]:
                                   compound  categorylabel
0  CCCCCCC(C)OC(=O)COc1nc(F)c(Cl)c(N)c1Cl (stereo not drawn)       inactive
1  N[C@@H](Cc1cc(I)c(Oc2ccc(O)c(I)c2)c(I)c1)C(=O)O         active
2               CN(C)C(=O)Nc1ccc(Cl)c(Cl)c1         active
3                   CCSC(=O)N(CC(C)C)CC(C)C       inactive
4  COC(=O)c1ccc(I)cc1S(=O)(=O)NC(=O)Nc1nc(C)nc(OC)n1       inactive

Which outcome was assigned to O=C(O)c1ccccc1 in this test? inactive

O=C(Nc1ccc([N+](=O)[O-])cc1Cl)c1cc(Cl)ccc1O ? active

Same for COc1c(Cl)ccc(Cl)c1C(=O)O inactive

Similarly, CCOC(=O)COc1cc(-n2ncc(C(F)(F)F)c(C)c2=O)c(F)cc1Cl ? inactive

Follow-up item: CCN(CC)C(=O)c1cccc(C)c1 active

###

Read-out: CFLAR gene, CFLAR (gene 8837)
methodSummary: LTEA_HepaRG_CFLAR: Life Technologies and Expression Analysis (LTEA) Assay for CFLAR gene using HepaRG (AID 2283455)
setupConditions: mRNA level, 48 h; actives raise or lower the signal
Method: LTEA_HepaRG is a cell based, multiplexed-readout assay that uses HepaRG, a human liver cell line, with measurements taken at 48 hours after chemical dosing on a 96-well plate.LTEA_HepaRG_CFLAR is one of 102 assay component(s) measured in the LTEA HepaRG cell culture assay. It is a marker of Cell proliferation, survival, death.Data from the assay component LTEA_HepaRG_CFLAR was analyzed into 1 endpoint. […]
Calls of active or inactive are those of the source. Rule for the calls: active = hit-call score of the fitted dose curve at least 0.9, where 1 is the maximum; inactive = score below 0.9.
Allowed answers: y (active), n (inactive)

In [3]: df
Out[3]:
                                entrysmiles  categorylabel
0  N[C@@H](Cc1cc(I)c(Oc2ccc(O)c(I)c2)c(I)c1)C(=O)O              n
1  CC(=O)[C@H]1CC[C@H]2[C@@H]3CCC4=CC(=O)CC[C@]4(C)[C@H]3CC[C@]12C              y
2                            O=C(O)c1ccccc1              n

Please share the test call associated with C#CCOC(=O)[C@@H](C)Oc1ccc(Oc2ncc(Cl)cc2F)cc1 . n

What do we get for O=C(c1ccc(O)cc1O)c1ccc(O)cc1O ? n

###

Read-out: Tumor necrosis factor receptor 1 (TNFRSF1A), TNFRSF1A (gene 7132)
methodSummary: LTEA_HepaRG_TNFRSF1A: Life Technologies and Expression Analysis (LTEA) Assay for Tumor necrosis factor receptor 1 (TNFRSF1A) using HepaRG (AID 2283535)
setupConditions: mRNA level, 48 h; actives raise or lower the signal
Calls of active or inactive are those of the source. The calls were made as follows: active = hit-call score of the fitted dose curve at least 0.9, where 1 is the maximum; inactive = score below 0.9.
Just give me one of these, please: Y = active, N = inactive

>>> print(df.to_string())
                                   compound  categorylabel
0  CCCN(CCC)c1c([N+](=O)[O-])cc(C(F)(F)F)c(N)c1[N+](=O)[O-]              N
1  CCC(C)OC(=O)N1CCCCC1CCO (configuration not stated)              N
2                     O=C(c1ccccc1)C1CCCCC1              N
3         O=C(O)C1(C(=O)Nc2ccc(Cl)cc2Cl)CC1              N
4  CCOC(=O)C(C)Oc1ccc(Oc2nc3ccc(Cl)cc3o2)cc1 (configuration not stated)              N
5  CC(C)(C)[C@@H](O)[C@@H](Cc1ccc(Cl)cc1)n1cncn1              N

Now consider the entry below.
How was CCCN(CCC)C(=O)SCC classified in this test? N

###

methodSummary: APR_HepG2_MicrotubuleCSK_72hr: Apredica 72-hour HepG2 Assay for Microtubule CSK Stabilty (AID 2282919)
setupConditions: HepG2 microtubule cytoskeleton, high-content imaging, actives raise or lower the signal
Calls of active or inactive are those of the source. Rule for the calls: active = hit-call score of the fitted dose curve at least 0.9, where 1 is the maximum; inactive = score below 0.9.
Lab note: assign the record to one of true = active, false = inactive

In [3]: df
Out[3]:
                                   molecule  categorylabel
0             CC(C)(c1ccc(O)cc1)c1ccc(O)cc1          false
1  CC(=O)[C@H]1CC[C@H]2[C@@H]3CCC4=CC(=O)CC[C@]4(C)[C@H]3CC[C@]12C          false
2  CCC(O)=C1C(=O)CC(C(=O)O)CC1=O (centres undefined)          false
3  O=C(Nc1ccc([N+](=O)[O-])cc1Cl)c1cc(Cl)ccc1O           true
4           CCOC(=O)NCCOc1ccc(Oc2ccccc2)cc1           true

Please state the recorded outcome for this molecule: COC(=O)c1ccccc1C(=O)O false

###

methodSummary: BSK_3C_SRB: Viability Assessment in the BioMAP Diversity Plus: 3C Assay (AID 2283023);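 also: cells read 24 h after compound dosing; fitted both ways against DMSO so a hit may be signal rise or drop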
setupConditions: primary human endothelial cells (HUVEC)
The source made the active and inactive calls. Rule for the calls: active = hit-call score of the fitted dose curve at least 0.9, where 1 is the maximum; inactive = score below 0.9.
Classes to choose from: active, inactive

Worked examples follow.
>>> df
                                   molecule  categorylabel
0  C[C@]12CC[C@@H]3c4ccc(O)cc4C[C@@H](CCCCCCCCCS(=O)CCCC(F)(F)C(F)(F)F)[C@H]3[C@@H]1CC[C@@H]2O (stereo partly drawn)         active
1  COC(=O)CSc1cc(N=c2sc(=O)n3n2CCCC3)c(F)cc1Cl       inactive
2  CCOC(=O)[C@H](C)Oc1ccc(Oc2nc3ccc(Cl)cc3o2)cc1       inactive
3  CCOC(=O)C(C)Oc1ccc(Oc2cnc3cc(Cl)ccc3n2)cc1 (stereo not drawn)       inactive
4                            O=C(O)c1ccccc1       inactive
5  CCC(O)=C1C(=O)CC(C(=O)O)CC1=O (stereo not drawn)       inactive
6  O=C(Nc1ccc([N+](=O)[O-])cc1Cl)c1cc(Cl)ccc1O         active
7            CCCCOCCOCCOCc1cc2c(cc1CCC)OCO2         active

Call for entry c1ccc2[nH]c(-c3cscn3)nc2c1 : inactive

Now consider N[C@@H](Cc1cc(I)c(Oc2ccc(O)c(I)c2)c(I)c1)C(=O)O . inactive

Entry CCSC(=O)N(CC(C)C)CC(C)C please inactive

Also need C=CCOC(Cn1ccnc1)c1ccc(Cl)cc1Cl (stereo not drawn) , thanks. inactive

Another molecule: CC(=O)[C@H]1CC[C@H]2[C@@H]3CCC4=CC(=O)CC[C@]4(C)[C@H]3CC[C@]12C active

Likewise for CCOC(=O)NCCOc1ccc(Oc2ccccc2)cc1 ? active

###

studyTarget: Estrogen receptor (Homo sapiens) (UniProt P03372)
Sequence (P03372 whole entry, looked up): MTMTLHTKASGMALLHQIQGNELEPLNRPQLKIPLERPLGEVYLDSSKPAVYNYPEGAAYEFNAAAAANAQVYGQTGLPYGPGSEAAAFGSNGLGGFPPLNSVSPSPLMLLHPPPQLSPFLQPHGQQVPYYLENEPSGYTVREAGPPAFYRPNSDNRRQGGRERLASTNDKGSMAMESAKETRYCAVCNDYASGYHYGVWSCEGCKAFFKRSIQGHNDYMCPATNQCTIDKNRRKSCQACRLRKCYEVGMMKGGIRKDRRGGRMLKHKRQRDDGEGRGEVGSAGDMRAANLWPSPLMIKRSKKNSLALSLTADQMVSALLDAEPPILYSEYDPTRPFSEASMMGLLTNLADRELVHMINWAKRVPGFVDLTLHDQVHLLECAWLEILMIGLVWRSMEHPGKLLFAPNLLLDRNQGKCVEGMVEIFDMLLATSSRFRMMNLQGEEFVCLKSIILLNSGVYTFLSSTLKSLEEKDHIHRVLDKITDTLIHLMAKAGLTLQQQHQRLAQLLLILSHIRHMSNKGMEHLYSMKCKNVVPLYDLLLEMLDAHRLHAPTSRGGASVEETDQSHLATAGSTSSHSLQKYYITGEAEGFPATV
methodSummary: ATG_ERa_TRANS: Attagene TRANS-FACTORIAL HepG2 Assay for human Estrogen Receptor alpha (ERa) (AID 2282970)
setupConditions: HepG2 Attagene TRANS ERa GAL4 reporter, mRNA
Inconclusive results are not listed. The source made the active and inactive calls. The calls were made as follows: active = hit-call score of the fitted dose curve at least 0.9, where 1 is the maximum; inconclusive = response in the unintended direction; inactive = score below 0.9.
Classes to choose from: active, inactive

>>> df
                                   molecule                               studytarget  categorylabel
0         O=C(O)C1(C(=O)Nc2ccc(Cl)cc2Cl)CC1  Estrogen receptor (Homo sapiens) (UniProt P03372)       inactive
1  CCC(O)=C1C(=O)CC(C(=O)O)CC1=O (stereo unspecified)  Estrogen receptor (Homo sapiens) (UniProt P03372)       inactive
2  CCCCOC(=O)[C@@H](C)Oc1ccc(Oc2ccc(C(F)(F)F)cn2)cc1  Estrogen receptor (Homo sapiens) (UniProt P03372)       inactive
3  COC(=O)c1cccc(C)c1S(=O)(=O)NC(=O)Nc1nc(OCC(F)(F)F)nc(N(C)C)n1  Estrogen receptor (Homo sapiens) (UniProt P03372)       inactive
4              CCCOC(=O)c1ccc(C(=O)OCCC)nc1  Estrogen receptor (Homo sapiens) (UniProt P03372)       inactive
5  CCCCCOC(=O)COc1cc(N2C(=O)C3=C(CCCC3)C2=O)c(F)cc1Cl  Estrogen receptor (Homo sapiens) (UniProt P03372)       inactive
6                     O=C(c1ccccc1)C1CCCCC1  Estrogen receptor (Homo sapiens) (UniProt P03372)         active
7  COC(=O)c1ccc(CNS(C)(=O)=O)cc1S(=O)(=O)NC(=O)Nc1nc(OC)cc(OC)n1  Estrogen receptor (Homo sapiens) (UniProt P03372)       inactive
8           CCOC(=O)NCCOc1ccc(Oc2ccccc2)cc1  Estrogen receptor (Homo sapiens) (UniProt P03372)         active
9                   CCN(CC)C(=O)c1cccc(C)c1  Estrogen receptor (Homo sapiens) (UniProt P03372)       inactive

As a next step, examine the molecule that follows.
How did this test come out for CCCCOC(=O)C(C)Oc1ccc(Oc2ccc(C(F)(F)F)cn2)cc1 (stereo unspecified) ? inactive
